Listed molecules paired with reported LD25
Tested on: HEP-G2 cells
Test: MTT cell viability assay, HEP-G2 cells
Details: HEP-G2 cells, MTT assay, 24 h exposure; 25% reduction of viability

Asked: What does the data say about its LD25? Entry: COc1cc(NCc2ccc(F)cc2)ccc1C(=O)NCc1ccc(F)cc1 [28b]
Given back: >8 µM

Asked: Which LD25 value belongs to COc1nc(NCc2ccc(F)cc2)cc(C)c1C(=O)NCc1ccc(F)cc1 [36b] ?
Given back: >16 µM

Next item in the queue.
Asked: Given the molecule Cc1cc(N2CCOCC2)nc(N)c1CNC(=O)Cc1cc(F)cc(F)c1 [compound 61] , what is its reported LD25?
Given back: >63 µM
